B1: Zinc finger MYM-type protein 6, residues 427 to 504; numbered along this chain, O95789 (parent)
chain: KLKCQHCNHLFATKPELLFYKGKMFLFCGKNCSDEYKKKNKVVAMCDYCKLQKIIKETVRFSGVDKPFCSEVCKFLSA

- Variants of: B1
- test.name: abundance fitness (aPCA) (normalised: wild type 0, dead -1); higher = more abundant; growth selection in yeast, the domain comes from the species named
- protocol.conditions: Homo sapiens
What abundance fitness was measured for each of the following?
When you answer, write just the number.

Answer with the recorded abundance fitness of `K39W` only.
-0.099

Answer with the recorded abundance fitness of `Y48P` only.
-0.801

Answer with the recorded abundance fitness of `G63V` only.
-0.713

Answer with the recorded abundance fitness of `K39Q` only.
-0.043

Answer with the recorded abundance fitness of `L51K` only.
0.414

Answer with the recorded abundance fitness of `G22D` only.
-0.215

Answer with the recorded abundance fitness of `S70K` only.
-0.635

Answer with the recorded abundance fitness of `C32D` only.
-0.607

Answer with the recorded abundance fitness of `G22F` only.
-0.254

Answer with the recorded abundance fitness of `I54L` only.
0.128

Answer with the recorded abundance fitness of `S62M` only.
0.432

Answer with the recorded abundance fitness of `V59C` only.
-0.452

Answer with the recorded abundance fitness of `V72E` only.
0.535

Answer with the recorded abundance fitness of `S77R` only.
-0.394

Answer with the recorded abundance fitness of `F68S` only.
-0.842

Answer with the recorded abundance fitness of `D65L` only.
-0.105

Answer with the recorded abundance fitness of `L26T` only.
0.035

Answer with the recorded abundance fitness of `L26A` only.
0.05

Answer with the recorded abundance fitness of `E35A` only.
-0.024

Answer with the recorded abundance fitness of `C32L` only.
-1.05

Answer with the recorded abundance fitness of `F27N` only.
-0.512

Answer with the recorded abundance fitness of `C28D` only.
-0.352
